# TESTED ON: Human Full Length PARG (Homo sapiens (Human))
# Sequence (Q86W56 whole entry): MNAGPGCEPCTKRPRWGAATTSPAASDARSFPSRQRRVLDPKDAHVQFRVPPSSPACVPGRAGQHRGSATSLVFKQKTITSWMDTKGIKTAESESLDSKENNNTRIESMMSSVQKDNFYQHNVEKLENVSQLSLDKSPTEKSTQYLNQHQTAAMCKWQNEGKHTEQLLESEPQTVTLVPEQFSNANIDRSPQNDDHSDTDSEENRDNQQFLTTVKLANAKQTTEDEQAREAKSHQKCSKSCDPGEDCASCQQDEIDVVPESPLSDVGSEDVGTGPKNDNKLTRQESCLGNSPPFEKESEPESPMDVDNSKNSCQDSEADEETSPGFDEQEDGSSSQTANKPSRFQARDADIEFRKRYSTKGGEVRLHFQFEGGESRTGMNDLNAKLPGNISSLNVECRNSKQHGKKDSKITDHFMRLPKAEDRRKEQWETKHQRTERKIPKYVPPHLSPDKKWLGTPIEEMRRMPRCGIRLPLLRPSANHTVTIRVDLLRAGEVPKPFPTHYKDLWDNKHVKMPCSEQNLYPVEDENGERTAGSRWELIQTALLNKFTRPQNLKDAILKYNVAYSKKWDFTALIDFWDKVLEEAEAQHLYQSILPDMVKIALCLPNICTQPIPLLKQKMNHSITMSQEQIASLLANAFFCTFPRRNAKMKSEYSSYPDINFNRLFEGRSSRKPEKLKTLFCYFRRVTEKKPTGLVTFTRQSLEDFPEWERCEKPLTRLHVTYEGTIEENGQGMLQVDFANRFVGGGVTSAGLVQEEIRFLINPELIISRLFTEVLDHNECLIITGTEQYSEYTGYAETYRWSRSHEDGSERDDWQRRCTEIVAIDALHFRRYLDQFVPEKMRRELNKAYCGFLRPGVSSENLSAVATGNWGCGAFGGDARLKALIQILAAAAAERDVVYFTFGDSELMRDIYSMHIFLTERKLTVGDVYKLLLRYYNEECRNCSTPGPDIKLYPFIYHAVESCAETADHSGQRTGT
# METHOD: PARG enzyme assay (TR-FRET)
# Type: biochemical
# APPLIED CONDITIONS: read-out: PARG Biochem IC50 Geomean
QUANTITY: log10 of IC50 (log10 of the value in nM)

>  <COMPOUND>
Cn1cc(NC(=O)Cn2c(=O)n(C)c(=O)c3cc(S(=O)(=O)NC4(C)CC4)ccc32)cn1

>  <log10 of IC50>
3.59

$$$$
>  <COMPOUND>
CCn1cc(Cn2c(=O)c3cc(S(=O)(=O)NC4(C)CC4)ccc3n(C)c2=O)cn1

>  <log10 of IC50>
2.65

$$$$
>  <COMPOUND>
Cn1c(=O)c2cc(S(=O)(=O)NC3(C)CC3)ccc2n(CC2CCCO2)c1=O (centres unmarked)

>  <log10 of IC50>
3.38

$$$$
>  <COMPOUND>
Cc1cc(Cn2c(=O)n(Cc3cnn(C)c3)c(=O)c3cc(S(=O)(=O)NC4(C)CC4)ccc32)on1

>  <log10 of IC50>
1.54

$$$$
>  <COMPOUND>
Cc1cc(Cn2nc(NCCN(C)C)c3ccc(S(=O)(=O)NC4(C)CC4)cc3c2=O)on1

>  <log10 of IC50>
2.58

$$$$

###

# System: PARG in HeLa cell line
# METHOD: PARG cell assay (PAR chain immunofluorescence after MMS)
# Type: cell-based
# APPLIED CONDITIONS: Homo sapiens; HeLa cells, MMS 50 μg/mL; read-out: PARG Cell IC50 Geomean
Recorded IC50 for the following compounds
QUANTITY: IC50 (nM)

>  <COMPOUND>
Cc1ncc(Cn2c(=O)c3cc(S(=O)(=O)NC4(C)CC4)ccc3n(C)c2=O)s1 [Example 109]

>  <ENDPOINT UNIT>
nM

>  <REPORTED MEASUREMENT>
288

$$$$
>  <COMPOUND>
COCCn1c(=O)n(Cc2cnn(C)c2)c(=O)c2cc(S(=O)(=O)NC3(C)CC3)ccc21 [Example 270]

>  <ENDPOINT UNIT>
nM

>  <REPORTED MEASUREMENT>
102

$$$$
>  <COMPOUND>
Cn1cc(Cn2c(=O)c3cc(S(=O)(=O)NC4(C#N)CC4)ccc3n(Cc3ccc(F)cc3)c2=O)cn1 [Example 358]

>  <ENDPOINT UNIT>
nM

>  <REPORTED MEASUREMENT>
346

$$$$
>  <COMPOUND>
CCc1nn(Cc2cc(C)no2)c(=O)c2cc(S(=O)(=O)NC3(C)CC3)ccc12 [Example 353]

>  <ENDPOINT UNIT>
nM

>  <REPORTED MEASUREMENT>
574

$$$$
>  <COMPOUND>
CC(C)Cn1c(=O)n(Cc2cnn(C)c2)c(=O)c2cc(S(=O)(=O)NC3(C)CC3)ccc21 [Example 295]

>  <ENDPOINT UNIT>
nM

>  <REPORTED MEASUREMENT>
85

$$$$
>  <COMPOUND>
Cc1cc(Cn2nc(C(C)C)c3ccc(S(=O)(=O)NC4(C)CC4)cc3c2=O)on1 [Example 310]

>  <ENDPOINT UNIT>
nM

>  <REPORTED MEASUREMENT>
455

$$$$
>  <COMPOUND>
Cn1cc(Cn2c(=O)c3cc(S(=O)(=O)NC4(C)CC4)ccc3n(CC3CCCC3)c2=O)cn1 [Example 279]

>  <ENDPOINT UNIT>
nM

>  <REPORTED MEASUREMENT>
51

$$$$
>  <COMPOUND>
Cc1nc(C)c(Cn2c(=O)n(Cc3c(C)noc3C)c(=O)c3cc(S(=O)(=O)NC4(C)CC4)ccc32)s1 [Example 165]

>  <ENDPOINT UNIT>
nM

>  <REPORTED MEASUREMENT>
63

$$$$
>  <COMPOUND>
Cc1cc(Cn2c(=O)c3cc(S(=O)(=O)NC4(C)CC4)ccc3n(CC3(F)COC3)c2=O)on1 [Example 350]

>  <ENDPOINT UNIT>
nM

>  <REPORTED MEASUREMENT>
341

$$$$
>  <COMPOUND>
Cn1cc(Cn2c(=O)c3cc(S(=O)(=O)NC4(C)CC4)ccc3n(CC3CCOC3)c2=O)cn1 (stereo not shown) [Example 259]

>  <ENDPOINT UNIT>
nM

>  <REPORTED MEASUREMENT>
108

$$$$
>  <COMPOUND>
Cc1cc(Cn2c(=O)c3cc(S(=O)(=O)NC4(C)CC4)ccc3n(CCN(C)C)c2=O)on1 [Example 246]

>  <ENDPOINT UNIT>
nM

>  <REPORTED MEASUREMENT>
431

$$$$
>  <COMPOUND>
Cc1ncc(Cn2c(=O)c3cc(S(=O)(=O)NC4(C)CC4)ccc3n(Cc3cc(C(F)(F)F)nn3C)c2=O)s1 [Example 231]

>  <ENDPOINT UNIT>
nM

>  <REPORTED MEASUREMENT>
47

$$$$
>  <COMPOUND>
CCn1cc(Cn2c(=O)c3cc(S(=O)(=O)NC4(C)CC4)ccc3n(C)c2=O)cn1 [Example 181]

>  <ENDPOINT UNIT>
nM

>  <REPORTED MEASUREMENT>
680

$$$$
>  <COMPOUND>
COc1cccc(Cn2c(=O)n(CC#N)c(=O)c3cc(S(=O)(=O)NC4(C)CC4)ccc32)c1 [Example 187]

>  <ENDPOINT UNIT>
nM

>  <REPORTED MEASUREMENT>
343

$$$$
>  <COMPOUND>
C#CCn1c(=O)n(Cc2cnn(C)c2)c(=O)c2cc(S(=O)(=O)NC3(C#N)CC3)ccc21 [Example 355]

>  <ENDPOINT UNIT>
nM

>  <REPORTED MEASUREMENT>
953

$$$$
>  <COMPOUND>
Cn1cc(Cn2c(=O)c3cc(S(=O)(=O)NC4(C)CC4)ccc3n(CCN3CCCC3)c2=O)cn1 [Example 272]

>  <ENDPOINT UNIT>
nM

>  <REPORTED MEASUREMENT>
467

$$$$
>  <COMPOUND>
CN1CCCCC1Cn1c(=O)n(Cc2cnn(C)c2)c(=O)c2cc(S(=O)(=O)NC3(C)CC3)ccc21 (stereo not shown) [Example 238]

>  <ENDPOINT UNIT>
nM

>  <REPORTED MEASUREMENT>
220

$$$$
>  <COMPOUND>
Cc1cc(Cn2c(=O)c3cc(S(=O)(=O)NC4(C)CC4)ccc3n(CC3CC(F)(F)C3)c2=O)on1 [Example 363]

>  <ENDPOINT UNIT>
nM

>  <REPORTED MEASUREMENT>
382

$$$$
>  <COMPOUND>
COc1ccc(Cn2c(=O)n(C)c(=O)c3cc(S(=O)(=O)NC4(C)CC4)ccc32)cc1 [Example 61]

>  <ENDPOINT UNIT>
nM

>  <REPORTED MEASUREMENT>
199

$$$$
>  <COMPOUND>
Cn1cc(Cn2c(=O)c3cc(S(=O)(=O)NC4(C)CC4)ccc3n(CC3COC3)c2=O)cn1 [Example 297]

>  <ENDPOINT UNIT>
nM

>  <REPORTED MEASUREMENT>
272

$$$$
>  <COMPOUND>
Cn1cc(Cn2c(=O)c3cc(S(=O)(=O)NC4(C)CC4)ccc3n(CC3CCO3)c2=O)cn1 (stereo not shown) [Example 343]

>  <ENDPOINT UNIT>
nM

>  <REPORTED MEASUREMENT>
351

$$$$
>  <COMPOUND>
Cc1cc(Cn2c(=O)c3cc(S(=O)(=O)NC4(C)CC4)ccc3n(CC(F)F)c2=O)on1 [Example 324]

>  <ENDPOINT UNIT>
nM

>  <REPORTED MEASUREMENT>
272

$$$$

###

# TESTED ON: Human Full Length PARG (Homo sapiens (Human))
# METHOD: PARG enzyme assay (TR-FRET)
# Type: biochemical
# APPLIED CONDITIONS: read-out: PARG Biochem IC50
pIC50: −log10 of the molar value.
Recorded pIC50 for the following compounds

>  <COMPOUND>
COC(C)(C)Cn1c(=O)n(Cc2cc(C)no2)c(=O)c2cc(S(=O)(=O)NC3(C)CC3)ccc21

>  <pIC50>
6.33

$$$$
>  <COMPOUND>
CCCCn1c(=O)n(Cc2cc(C)no2)c(=O)c2cc(S(=O)(=O)NC3(CF)CC3)ccc21

>  <pIC50>
6.58

$$$$
>  <COMPOUND>
Cn1cc(Cn2c(=O)c3cc(S(=O)(=O)NC4(CF)CC4)ccc3n(Cc3cc[nH]n3)c2=O)cn1

>  <pIC50>
7.09

$$$$
>  <COMPOUND>
Cc1cc(Cn2c(=O)c3cc(S(=O)(=O)NC4(C)CC4)ccc3n(CC#N)c2=O)on1

>  <pIC50>
6.22

$$$$
>  <COMPOUND>
CC1(NS(=O)(=O)c2cc3c4c(cccc4c2)C(=O)NC3=O)CC1

>  <pIC50>
5.46

$$$$
>  <COMPOUND>
Cc1cc(Cn2c(=O)c3cc(S(=O)(=O)NC4(CF)CC4)ccc3n(Cc3csc(C)n3)c2=O)on1

>  <pIC50>
6.72

$$$$
>  <COMPOUND>
Cc1cc(Cn2c(=O)c3cc(S(=O)(=O)NC4(CF)CC4)ccc3n(CC3CCOC3)c2=O)on1 (centres unmarked)

>  <pIC50>
6.90

$$$$
>  <COMPOUND>
Cc1cc(Cn2c(=O)c3cc(S(=O)(=O)NC4(CF)CC4)ccc3n(Cc3noc(C)n3)c2=O)on1

>  <pIC50>
6.68

$$$$
>  <COMPOUND>
CC(C)Cn1c(=O)n(Cc2cnn(C)c2)c(=O)c2cc(S(=O)(=O)NC3(CF)CC3)ccc21

>  <pIC50>
6.85

$$$$
>  <COMPOUND>
Cc1cc(Cn2c(=O)c3cc(S(=O)(=O)NC4(C)CC4)ccc3n(CC(=O)N3CCC3)c2=O)on1

>  <pIC50>
5.68

$$$$
>  <COMPOUND>
Cc1cc(Cn2c(=O)c3cc(S(=O)(=O)NC4(C)CC4)cc(Br)c3n(C)c2=O)on1

>  <pIC50>
6.08

$$$$
>  <COMPOUND>
CCOC(=O)Cn1c(=O)c2cc(S(=O)(=O)NC3(C)CC3)ccc2n(C)c1=O

>  <pIC50>
5.40

$$$$
>  <COMPOUND>
Cc1cc(Cn2c(=O)c3cc(S(=O)(=O)NC4(C)CC4)ccc3n(CC3(C)CCC3)c2=O)on1

>  <pIC50>
6.44

$$$$
>  <COMPOUND>
Cn1c(=O)n(Cc2nncs2)c(=O)c2cc(S(=O)(=O)NC3(CF)CC3)ccc21

>  <pIC50>
5.99

$$$$
>  <COMPOUND>
Cn1c(=O)n(Cc2cnc[nH]2)c(=O)c2cc(S(=O)(=O)NC3(C)CC3)ccc21

>  <pIC50>
5.42

$$$$
>  <COMPOUND>
Cn1cc(Cn2c(=O)c3cc(S(=O)(=O)NC4(CF)CC4)ccc3n(Cc3cnn(C)c3)c2=O)cn1

>  <pIC50>
7.32

$$$$
>  <COMPOUND>
Cc1nnc(Cn2c(=O)c3cc(S(=O)(=O)NC4(CF)CC4)ccc3n(C)c2=O)s1

>  <pIC50>
6.24

$$$$
>  <COMPOUND>
Cc1cc(Cn2c(=O)c3cc(S(=O)(=O)NC4(CF)CC4)ccc3n(C(F)F)c2=O)on1

>  <pIC50>
6.10

$$$$
>  <COMPOUND>
Cn1nnnc1Cn1c(=O)c2cc(S(=O)(=O)NC3(C)CC3)ccc2n(C)c1=O

>  <pIC50>
5.56

$$$$
>  <COMPOUND>
Cc1ccc(Cn2c(=O)c3cc(S(=O)(=O)NC4(C)CC4)ccc3n(C)c2=O)cn1

>  <pIC50>
5.80

$$$$
>  <COMPOUND>
Cc1ncc(Cn2c(=O)c3cc(S(=O)(=O)NC4(C#N)CC4)ccc3n(CC3CC3)c2=O)s1

>  <pIC50>
7.51

$$$$
>  <COMPOUND>
Cc1cc(Cn2c(=O)n(Cc3cnn(C)c3)c(=O)c3cc(S(=O)(=O)NC4(CF)CC4)ccc32)[nH]n1

>  <pIC50>
7.02

$$$$
>  <COMPOUND>
Cc1cc(Cn2c(=O)c3cc(S(=O)(=O)NC4(CF)CC4)ccc3n(CC(F)(F)F)c2=O)on1

>  <pIC50>
6.45

$$$$
>  <COMPOUND>
Cc1cc(Cn2c(=O)c3cc(S(=O)(=O)NC4(C)CC4)ccc3n(CC3(C#N)CC3)c2=O)on1

>  <pIC50>
6.85

$$$$
>  <COMPOUND>
Cc1cc(Cn2c(=O)c3cc(S(=O)(=O)NC4(C)CC4)cc(-c4cnn(C)c4)c3n(C)c2=O)on1

>  <pIC50>
5.77

$$$$
>  <COMPOUND>
Cc1cc(Cn2c(=O)[nH]c3ccc(S(=O)(=O)NC4(CF)CC4)cc3c2=O)on1

>  <pIC50>
6.35

$$$$
